Target: Human autotaxin enzyme (Homo sapiens, UniProt Q13822)
Construct: purchased R&D System
Assay: Evaluation of autotaxin inhibitor, Method C (Test Example 3): 18:0 Lyso PC, choline assay, Resorufin fluorescence
Format: biochemical
Details: Assay Method C (Test Example 3), human autotaxin, 18:0 Lyso PC substrate; read-out: Inhibitory Activity (autotaxin enzyme inhibitory activity, IC50 class)
pIC50: −log10 of the molar value.
measured.endpoint: pIC50

Record excerpt, results attached:
> print(dat)
                                   compound  observed.value
1  CCCCCn1c(-c2ccc(S(=O)(=O)N3CCOCC3)cc2)cc(=O)n2cc(-c3ccc(Cl)cc3)nc12    7.00 to 8.00
2  CCCCCn1c(O[C@H]2CCNC2)cc(=O)n2cc(-c3ccc(Cl)cc3)nc12    7.00 to 8.00
3  CCCCCn1c(N2CCCC(C3CCCCC3)C2)cc(=O)n2cc(-c3ccc(Cl)cc3)nc12 (stereo not shown)          < 6.00
4  CCCCCn1c(N2CCC[C@H]2C(=O)N2CCNC(=O)CC2)cc(=O)n2cc(-c3ccc(Cl)cc3)nc12    7.00 to 8.00
5  CCCCCn1c(N2CCC[C@H]2C(=O)NCCN(C)C)cc(=O)n2cc(-c3ccc(Cl)cc3)nc12    6.00 to 7.00

query: I would be grateful if you could share the reported pIC50 for CCCCCn1c(N2CCNC(C(=O)NCC(=O)O)C2)cc(=O)n2cc(-c3ccc(Cl)cc3)nc12 (stereo not shown) .
result: 7.00 to 8.00

query: How about this compound: CCCCCn1c(N2CCN(C(=O)OC(C)(C)C)C(C(=O)NCCC(=O)O)C2)cc(=O)n2cc(-c3ccc(Cl)cc3)nc12 (stereo not shown)
result: 6.00 to 7.00

Each recorded value in this set is attributed to patent US20160002247A1.
